# Procedure details: Ex vivo biodistribution in PC-3 tumor-bearing mice
# Design: species or system NRG mice
# Condition summary: mouse, muscle, intravenous, 1 h post-injection, n = 4; read-out: Muscle uptake
Measurement type: tissue uptake at 1 h (%ID/g)
// return numeric value only (unit: %ID/g, not printed)

QUERY: Answer with reported tissue uptake at 1 h of CC(C)C[C@H](NC(=O)[C@H](Cc1c[nH]cn1)NC(=O)CNC(=O)[C@@H](NC(=O)[C@H](C)NC(=O)[C@H](Cc1c[nH]c2ccccc12)NC(=O)[C@H](CCC(N)=O)NC(=O)[C@@H](Cc1ccc2ccccc2c1)NC(=O)CN1CCC(NC(=O)CN2CCN(CC(=O)O)CCN(CC(=O)O)CCN(CC(=O)O)CC2)CC1)C(C)C)C(=O)N1CSC[C@H]1C(N)=O [[^68Ga]Ga-TacBOMB3, metal not drawn]
RESULT: 0.24
